The values you see were collected from PubChem BioAssay (NCI).

# method: NCI Yeast Anticancer Drug Screen. Data for the wt2 strain (AID 169);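 also: 0% = growth of vehicle-treated yeast cultures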
# conditions_used: S. cerevisiae wt2 strain growth inhibition; at 11.0 µM; stronger effect = higher value
# Method: Growth inhibition of yeast strains with defined genetic alterations is measured as a screen for potential anti-cancer activity. Selected strains with alterations in DNA damage repair or cell cycle control were exposed to compounds and growth inhibition was measured relative to vehicle treated controls. The strain used in this assay is wt2
The panel holds about 79,000 compounds, 15% with a hit somewhere; the sample as a whole holds those more often. Activity calls are given as the source filed them. Rule as the data show it: active = growth inhibition above about 70%; inactive = the rest.
measured_attribute: growth inhibition

Worked set:
[
  {
    "molecule": "CC1CC(Br)C(=O)O1 (stereo not drawn)",
    "growth inhibition": "-25% (inactive)"
  },
  {
    "molecule": "COC(=O)C1=C(C(=O)OC)C2OC1c1cc3ccccc3cc12",
    "growth inhibition": "76% (active)"
  }
]

Data point: CCC1(O)C(=O)OCc2c1cc1n(c2=O)Cc2cc3cc(Cl)ccc3nc2-1 (stereo not drawn) ; growth inhibition = 20% (inactive)

###

# method: NCI Yeast Anticancer Drug Screen. Data for the sgs1 mgt1 strain (AID 161);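 also: 0% = growth of cultures given vehicle only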
# conditions_used: S. cerevisiae sgs1 mgt1 strain, at 50.0 µM (retest, dose inferred, filed as 5.0)
About 79,000 compounds went through this panel and 15% of them were active in at least one assay; those are over-represented in the sample as a whole. The source made the active and inactive calls. Rule as the data show it: active = growth inhibition above about 70%; inactive = the rest.
Outcomes you can answer with include only these: active, inactive

[
  {
    "compound": "C=CC[N+]12CN3CN(CN(C3)C1)C2",
    "group_label": "active"
  },
  {
    "compound": "C1CC[CH]([Sn]([CH]2CCCCC2)[CH]2CCCCC2)CC1.C1CC[CH]([Sn]([CH]2CCCCC2)[CH]2CCCCC2)CC1",
    "group_label": "inactive"
  }
]

Query: Kindly provide the recorded test outcome for the following compound: CC1=CC2OC3CC4OC(=O)/C=C/C=C/C(C(C)O)OCC(O)C(C)CC(=O)OCC2(CC1O)C4(C)C31CO1 (centres undefined)
Result: active

Query: Kindly provide the recorded test outcome for the following compound: O=C(O)c1cc[c]([Hg])cc1
Result: inactive

Query: Kindly provide the recorded test outcome for the following compound: c1ccc2c(NCCCCCCNc3c4ccccc4nc4ccccc34)c3ccccc3nc2c1
Result: active

Query: Kindly provide the recorded test outcome for the following compound: COc1cc(Br)cc(/C=C(\C)[N+](=O)[O-])c1O
Result: active

Query: Kindly provide the recorded test outcome for the following compound: C[CH2][Sn]1([CH2]C)[c]2ccccc2Oc2cccc[c]21
Result: active

Query: Kindly provide the recorded test outcome for the following compound: COc1ccc(/C=C(/C)[N+](=O)[O-])cc1
Result: active

Query: Kindly provide the recorded test outcome for the following compound: Cc1ccccc1C(=O)CN
Result: inactive

Query: Kindly provide the recorded test outcome for the following compound: COC1CC(CC2CCC(C)C(C(C)C(=O)O)O2)OC2(OC(C)(C3CCC(C)(C4OC(C5OC(O)(CO)C(C)CC5C)CC4C)O3)CC2C)C1C (centres undefined)
Result: active

Query: Kindly provide the recorded test outcome for the following compound: N#Cc1cc(N(CCCl)CCCl)c([N+](=O)[O-])cc1[N+](=O)[O-]
Result: inactive

Query: Kindly provide the recorded test outcome for the following compound: O=[N+]([O-])c1cc2c([N+](=O)[O-])cccc2o1
Result: active

Query: Kindly provide the recorded test outcome for the following compound: CC1CCC2(OC1)OC1CC3C4CC=C5CC(OC6OC(CO)C(OC7OC(C)C(OC8OC(C)C(O)C(O)C8O)C(O)C7O)C(O)C6OC6OC(C)C(O)C(O)C6O)CCC5(C)C4CCC3(C)C1C2C (centres undefined)
Result: active

Query: Kindly provide the recorded test outcome for the following compound: C[N+](C)(C)CC1CCCC(C[N+](C)(C)C)C1=O (centres undefined)
Result: inactive
